Value source: ChEMBL document CHEMBL5608182

Assay: Metabolic stability in human liver microsomes assessed as compound remaining at 1 uM preincubated for 10 mins followed by NADPH addition by LC-MS analysis
Type: ADME, Microsome
Conditions: read-out: Stability
Measurement Kind: remaining at 1 µM

COc1cccc(-n2ncn(CC(=O)[C@H]3CC[C@H]4[C@@H]5CC[C@@H]6C[C@](C)(O)CC[C@@H]6[C@H]5CC[C@]34C)c2=O)c1; 43.5%
C[C@@]1(O)CC[C@H]2[C@H](CC[C@@H]3[C@@H]2CC[C@]2(C)[C@@H](C(=O)Cn4cnn(-c5cccc(F)c5)c4=O)CC[C@@H]32)C1; 89%
C[C@@]1(O)CC[C@H]2[C@H](CC[C@@H]3[C@@H]2CC[C@]2(C)[C@@H](C(=O)Cn4cc(C#N)cn4)CC[C@@H]32)C1; 72%
C[C@@]1(O)CC[C@H]2[C@H](CC[C@@H]3[C@@H]2CC[C@]2(C)[C@@H](C(=O)Cn4cnn(CC5CC5)c4=O)CC[C@@H]32)C1; 26.4%

###

Quick reference for C0 at 24 h among some molecules
Assay: Initial drug concentration in male Sprague-Dawley rat at 6.1 micromol/kg, iv administered as single dose and measured upto 24 hrs by LC-MS/MS analysis
Format: ADME, organism-based
Settings: in vivo, dose 6.1 µmol/kg
Measurement Kind: C0 at 24 h (nM)

C[C@@]1(O)CC[C@H]2[C@H](CC[C@@H]3[C@@H]2CC[C@]2(C)[C@@H](C(=O)Cn4cc(C#N)cn4)CC[C@@H]32)C1; 3440
C[C@@]1(O)CC[C@H]2[C@H](CC[C@@H]3[C@@H]2CC[C@]2(C)[C@@H](C(=O)Cn4cnn(-c5cc(F)nc(F)c5)c4=O)CC[C@@H]32)C1; 1870

###

Quick reference for pKa among some compounds
Experiment: Acid dissociation constant, pKa of the compound
Assay type: physicochemical
Measurement Kind: pKa

C[C@@]1(O)CC[C@H]2[C@H](CC[C@@H]3[C@@H]2CC[C@]2(C)[C@@H](C(=O)Cn4cnn(-c5cc(F)nc(F)c5)c4=O)CC[C@@H]32)C1; > 12
C[C@@]1(O)CC[C@H]2[C@H](CC[C@@H]3[C@@H]2CC[C@]2(C)[C@@H](C(=O)Cn4cc(C#N)cn4)CC[C@@H]32)C1; > 12

###

Test: MRTlast in male Sprague-Dawley rat at 6.1 micromol/kg, iv administered as single dose and measured upto 24 hrs by LC-MS/MS analysis
Format: ADME, organism-based
Conditions: in vivo, dose 6.1 µmol/kg
Measurement Kind: MRT last at 24 h (h)

C[C@@]1(O)CC[C@H]2[C@H](CC[C@@H]3[C@@H]2CC[C@]2(C)[C@@H](C(=O)Cn4cc(C#N)cn4)CC[C@@H]32)C1; 2.12
C[C@@]1(O)CC[C@H]2[C@H](CC[C@@H]3[C@@H]2CC[C@]2(C)[C@@H](C(=O)Cn4cnn(-c5cc(F)nc(F)c5)c4=O)CC[C@@H]32)C1; 4.75

###

Quick reference for Emax among some compounds
Molecular target: GABA-A receptor; alpha-1/beta-2/gamma-2 (Homo sapiens) (UniProt P14867+P47870+P18507)
Experiment: Positive allosteric modulation of synaptic alpha1beta2gamma2 GABA-A receptor (unknown origin) transfected in LTK cells assessed as potentiation of GABA-induced peak current amplitude by measuring maximal efficacy at 0.01 to 10 uM at -80 mV holding potential preincubated for 30 secs followed by GABA stimulation for 2 secs by Q-patch assay relative to control
Assay type: cell-based
Details: filed as positive allosteric modulator, dose 0.01-10 µM, time 32.0 sec
Measurement Kind: Emax (%)

C[C@@]1(O)CC[C@H]2[C@H](CC[C@@H]3[C@@H]2CC[C@]2(C)[C@@H](C(=O)Cn4cnn(-c5cccc(N)c5)c4=O)CC[C@@H]32)C1; 786
C[C@@]1(O)CC[C@H]2[C@H](CC[C@@H]3[C@@H]2CC[C@]2(C)[C@@H](C(=O)Cn4cnn(-c5cc(F)ccc5F)c4=O)CC[C@@H]32)C1; 347
C[C@@]1(O)CC[C@H]2[C@H](CC[C@@H]3[C@@H]2CC[C@]2(C)[C@@H](C(=O)Cn4cnn(C5CCCC5)c4=O)CC[C@@H]32)C1; 691
C[C@@]1(O)CC[C@H]2[C@H](CC[C@@H]3[C@@H]2CC[C@]2(C)[C@@H](C(=O)Cn4cnn(-c5ccc6c(c5)OCO6)c4=O)CC[C@@H]32)C1; 387
C[C@@]1(O)CC[C@H]2[C@H](CC[C@@H]3[C@@H]2CC[C@]2(C)[C@@H](C(=O)Cn4cnn(-c5ccc(F)cc5)c4=O)CC[C@@H]32)C1; 390
C[C@@]1(O)CC[C@H]2[C@H](CC[C@@H]3[C@@H]2CC[C@]2(C)[C@@H](C(=O)Cn4cnn(CC(F)(F)F)c4=O)CC[C@@H]32)C1; 378
